What follows is literature data on IC50 for Tyrosine-protein kinase JAK3 (Homo sapiens).

Below, each entry is followed by its recorded IC50 result.
Compound: C=CC(=O)Nc1cccc(Nc2cc(Nc3cccc(Br)c3)ncn2)c1
IC50: ≤ 10 nM
//
Compound: Cn1cc(-c2cc3nccn3c(-c3cnn(C4(CC#N)CN(C5COC5)C4)c3)n2)cn1
IC50: > 1000 nM
//
Compound: O=c1[nH]c2c(N3CC(F)(F)C3)nc(-n3cnc4ccc(F)cc43)nc2n1[C@H]1CC[C@H](O)CC1
IC50: < 100 nM
//
Compound: CN1CCN(CC(=O)Nc2cccc(-c3cnc4ccccc4n3)c2)CC1
IC50: > 50000 nM
//
Compound: C=CC(=O)Nc1cccc(Nc2nc(Nc3ccccc3)ncc2F)c1
IC50: < 10 nM

As a next step, examine the compound that follows.
Query: Look at this compound and give its reported IC50. N#CCC(C1CC1)n1cc(-c2nc(-c3cnn(C4CCOCC4)c3)cc3nccn23)cn1 (stereo not shown)
Result: 100 to 1000 nM
